Conditions: Crystal; DTA
Assay Metric: Normal melting temperature (°C)
Return type: number; implicit unit °C.

Answered examples (3):
>  <Molecule>
CCn1c2ccccc2c2ccccc21 [9-ethylcarbazole]

>  <Normal melting temperature / °C>
69.2

$$$$
>  <Molecule>
CCCCn1c2ccccc2c2ccccc21 [N-butyl-9H-carbazole]

>  <Normal melting temperature / °C>
57.5

$$$$
>  <Molecule>
c1ccc2c3c([nH]c2c1)CCCC3 [2,3,4,9-tetrahydro-1H-carbazole]

>  <Normal melting temperature / °C>
118.2

$$$$

Now, please, on to the next molecule.
Request: # Normal melting temperature lookup, item Cn1c2ccccc2c2ccccc21 [9-methyl-9H-carbazole]
Result: 88
